abundance fitness: recorded values
B1: Neutrophil cytosol factor 2, residues 456 to 514; numbered along this chain, P19878 (parent)
chain: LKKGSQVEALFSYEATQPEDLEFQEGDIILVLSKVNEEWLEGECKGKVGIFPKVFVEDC

variants of: B1; assay: abundance fitness (aPCA) (normalised: wild type 0, dead -1); higher = more abundant; growth selection in yeast, the domain comes from the species named; settings: Homo sapiens

Please review the entries below; each comes with its answer.
Reported abundance fitness, variant G26V : ____
-0.407

And what about the variant V56D ?
-0.412

Next:
Reported abundance fitness, variant G46R : ____
-0.392
